Tested on: Huh-7.5 HCV Rluc replicon, luciferase luminescence, 72 h
Assay: inhibition of HCV replicon replication, late-stage follow-up, orthogonal assay for HCV NS3 helicase inhibitor project, cell-based, luminescence, Renilla luciferase replicon (AID 623962)
Details: at 10 µM
Activity calls are given as the source filed them.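 Rule for the calls: active = mean inhibition at 10 µM of 50% or more; inactive = mean inhibition at 10 µM below 50%.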
Classes used: Y for active, N for inactive

> print(dat)
                               given.smiles  cat
1  Cc1ccc2nc(-c3ccc(NC(=O)c4ccc(NC(=O)c5ccc(NC(=O)OCC6c7ccccc7-c7ccccc76)cc5)cc4)cc3)sc2c1S(=O)(=O)O    N
2  COc1cccc2c(=O)c3cc(Cl)cc(C(=O)Nc4cc(Cl)ccn4)c3[nH]c12    Y
3    Cc1cc2sc(-c3ccc(N)cc3)nc2cc1S(=O)(=O)O    N
4  Cc1ccc2nc(-c3ccc4nc(-c5ccc(NC(=O)c6ccc(C(C)(C)C)cc6)cc5)sc4c3)sc2c1S(=O)(=O)O    Y
5  COC(=O)c1ccc(C(=O)Nc2ccc(-c3nc4ccc(-c5nc6ccc(C)c(S(=O)(=O)O)c6s5)cc4s3)cc2)cc1    N
6  Cc1ccc2nc(-c3ccc4nc(-c5ccc(NS(=O)(=O)c6ccc(C(F)(F)F)cc6)cc5)sc4c3)sc2c1S(=O)(=O)O    N
7  CCOc1ccc2c(NNC(=O)c3cnccn3)c3c(nc2c1)CCCC3    Y
8  O=C(CCCCCCC(=O)Nc1ccc(-c2nc3ccccc3[nH]2)cc1)Nc1ccc(-c2nc3ccccc3[nH]2)cc1    Y
